- ASSAY_COMMENT: Metabolic stability in rat liver microsomes assessed as parent compound remaining at 0.5 uM incubated for 10 mins in presence of NADPH by LC-MS/MS analysis
- Type: ADME, Microsome
- ASSAY_CONTEXT: read-out: Stability
Strictly below 90% in remaining at 10 min, 0.5 µM: condition met. Otherwise: condition not met.

>>> class_label("COC(=O)Nc1cc(-c2ccc(OC[C@@H](N)CC(C)C)c(F)c2)ccn1")
"condition met"
>>> class_label("CC(=O)Nc1cc(-c2cc(F)c(OC[C@@H](N)CC(C)C)c(F)c2)ccn1")
"condition not met"
>>> class_label("COC(=O)Nc1cc(-c2ccc(OC[C@@](C)(N)CC(C)C)c(F)c2)ccn1")
"condition not met"
>>> class_label("COC(=O)Nc1cc(-c2ccc(OC[C@@H](N)CC(C)C)c(-c3ccno3)c2)ccn1")
"condition met"
>>> class_label("Cc1cc(-c2cc(C(F)F)c(OC[C@@](C)(N)CC(C)C)cn2)ccn1")
"condition met"
>>> class_label("COC(=O)Nc1cc(-c2cnc(OC[C@@](C)(N)CC(C)C)c(C)c2)ccn1")
"condition met"
>>> class_label("COC(=O)Nc1cc(-c2ccc(OC[C@@](C)(N)CC(C)C)nc2)ccn1")
"condition not met"
>>> class_label("COC(=O)Nc1cc(-c2ccc(OC[C@@](C)(N)CC(C)C)cn2)ccn1 (racemic)")
"condition not met"
>>> class_label("COC(=O)Nc1cc(-c2ccc(OC[C@@](C)(N)CC(C)C)c(Cl)c2)ccn1 (racemic)")
"condition met"
>>> class_label("CC(=O)Nc1cc(-c2ccc(OC[C@@](C)(N)CC(C)C)c(OC(F)(F)F)c2)ccn1")
"condition met"
>>> class_label("COC(=O)Nc1cc(-c2ccc(OC[C@@](C)(N)CC(C)C)c(C(F)F)c2)ccn1")
"condition met"
>>> class_label("COC(=O)Nc1cc(-c2cnc(OC[C@@](C)(N)CC(C)C)c(OC)c2)ccn1 (racemic)")
"condition met"
>>> class_label("COC(=O)Nc1cc(-c2ccc(OC[C@@](C)(N)CC(C)C)c(CO)c2)ccn1")
"condition not met"
>>> class_label("COC(=O)Nc1cc(-c2cc(OC)c(OC[C@@](C)(N)CC(C)C)cn2)ccn1")
"condition not met"
>>> class_label("CC(C)C[C@](C)(N)COc1cnc(-c2ccnc(Cl)c2)cc1C(F)F")
"condition not met"
>>> class_label("COC(=O)Nc1cc(-c2ccc(OC[C@@](C)(N)CC(C)C)c(OC(F)(F)F)c2)ccn1")
"condition met"
